tested on: B. subtilis 168; test: Bliss interaction score (quartile over a dose matrix) (fitness difference); higher = more antagonism (negative = synergy);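 also: first quartile when negative (synergy) and third quartile when positive (antagonism)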
readout-type: Bliss interaction score
# respond with the number and nothing more

Exam item: Query: Bliss interaction score; subject: COc1c(N2C[C@@H]3CCCN[C@@H]3C2)c(F)cc2c(=O)c(C(=O)O)cn(C3CC3)c12 [Moxifloxacin] + C/C(=C\C(=O)OCCCCCCCCC(=O)O)C[C@@H]1OC[C@H](C[C@@H]2O[C@H]2[C@@H](C)[C@H](C)O)[C@@H](O)[C@H]1O [Pseudomonic acid]
Marked response: 0.0399

Exam item: Query: Bliss interaction score; subject: CCC[C@@H]1C[C@@H](C(=O)N[C@@H]([C@H]2O[C@H](SC)[C@H](O)[C@@H](O)[C@H]2O)[C@@H](C)O)N(C)C1 [Lincomycin] + CN(C)C(=O)C(CCN1CCC(O)(c2ccc(Cl)cc2)CC1)(c1ccccc1)c1ccccc1 [Loperamide]
Marked response: -0.175

Origin of values: the supplement of paper PMC10627819
